- testSystem: butyrylcholinesterase (BChE, E.C. 3.1.1.8, from equine serum) (Equus caballus)
- Construct: butyrylcholinesterase (BChE, E.C. 3.1.1.8, from equine serum)
- Sequence (P81908 whole entry): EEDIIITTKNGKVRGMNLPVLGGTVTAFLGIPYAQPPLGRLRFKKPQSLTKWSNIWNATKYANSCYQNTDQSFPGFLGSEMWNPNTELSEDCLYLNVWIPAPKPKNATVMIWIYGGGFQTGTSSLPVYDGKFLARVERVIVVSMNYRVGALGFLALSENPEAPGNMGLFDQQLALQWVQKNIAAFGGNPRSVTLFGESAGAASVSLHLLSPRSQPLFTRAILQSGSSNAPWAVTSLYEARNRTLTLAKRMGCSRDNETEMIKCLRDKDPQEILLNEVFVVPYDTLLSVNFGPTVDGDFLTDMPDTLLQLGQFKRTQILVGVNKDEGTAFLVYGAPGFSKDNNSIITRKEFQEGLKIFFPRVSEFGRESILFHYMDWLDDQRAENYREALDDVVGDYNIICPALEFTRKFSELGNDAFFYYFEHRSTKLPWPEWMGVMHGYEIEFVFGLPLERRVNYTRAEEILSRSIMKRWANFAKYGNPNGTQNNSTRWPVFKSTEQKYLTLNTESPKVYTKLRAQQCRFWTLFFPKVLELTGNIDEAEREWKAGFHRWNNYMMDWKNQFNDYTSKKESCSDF
- measurementDescription: biochemical
- testContext: means ± SEM of three independent experiments
Readings of pIC50 for the listed compounds
Friendly reminder that pIC50 comes from taking -log10 of the concentration in mol/L.

Measured pIC50 of COC(=O)c1ccc2nc(-c3cc(Cl)c(O)cc3O)oc2c1 [Compound 6] : 6.48

Query COC(=O)c1ccc2nc(-c3ccc(O)cc3O)oc2c1 [Compound 3] yields pIC50 of 5.95

Kindly note the recorded pIC50 for COC(=O)c1ccc2nc(-c3ccc(O)c(O)c3O)oc2c1 [Compound 7] , which is 6.18

Query Oc1ccc(-c2nc3c(ccc4ccccc43)o2)c(O)c1 [Compound 8] yields pIC50 of 6.01

Item: CCc1cc(-c2nc3c(ccc4ccccc43)o2)c(O)cc1O [Compound 9] | pIC50: 5.99

Measured pIC50, Oc1cc(O)c(-c2nc3c(ccc4ccccc43)o2)cc1Cl [Compound 10] : 6.05

The values you see were collected from paper PMC9738531.
